Source listed as ChEMBL document CHEMBL2034944.

Test system: MCF7
Experiment: Cytotoxicity against human MCF7 cells after 48 hrs by MTT assay
Format: functional, cell-based
Details: MCF7, 48 h
pIC50: −log10 of the molar value.
measured_attribute: pIC50

Previously resolved entries follow.
CC(=O)O[C@@H]1C[C@H]2C(C)(C)C(=O)C=C[C@]2(C)[C@H]2[C@H](O)C[C@]3(C)C(=CC[C@H]3[C@H]3COC(C)(C)[C@@H](O)[C@H](O)C3)[C@@]21C    < 4.30
CC1(C)OC[C@H]([C@@H]2CC[C@]3(C)C4=CC[C@H]5C(C)(C)[C@@H](O)CC[C@]5(C)[C@H]4CC[C@@]23C)C[C@@H](O)[C@@H]1O    < 4.30
CC1(C)C(=O)C=C[C@]2(C)C3=CC[C@@]4(C)[C@H](C5=CC(O)OC5=O)C[C@H]5O[C@]54[C@]3(C)C(=O)C[C@@H]12 (stereo not given in full)    < 4.30
C[C@@H]([C@@H](O)[C@H](O)[C@H](O)C(C)(C)O)[C@@H]1CC[C@]2(C)C3=CC[C@H]4C(C)(C)C(=O)CC[C@]4(C)[C@H]3CC[C@@]12C    4.77

MCF7 / pIC50 / O=c1[nH]cc(F)c(=O)[nH]1 : value? < 4.00
